experimental.target: LRX3^ΔE-FLAG (Arabidopsis thaliana) (UniProt Q9T0K5)
Sequence (Q9T0K5 21-760, stated change not applied): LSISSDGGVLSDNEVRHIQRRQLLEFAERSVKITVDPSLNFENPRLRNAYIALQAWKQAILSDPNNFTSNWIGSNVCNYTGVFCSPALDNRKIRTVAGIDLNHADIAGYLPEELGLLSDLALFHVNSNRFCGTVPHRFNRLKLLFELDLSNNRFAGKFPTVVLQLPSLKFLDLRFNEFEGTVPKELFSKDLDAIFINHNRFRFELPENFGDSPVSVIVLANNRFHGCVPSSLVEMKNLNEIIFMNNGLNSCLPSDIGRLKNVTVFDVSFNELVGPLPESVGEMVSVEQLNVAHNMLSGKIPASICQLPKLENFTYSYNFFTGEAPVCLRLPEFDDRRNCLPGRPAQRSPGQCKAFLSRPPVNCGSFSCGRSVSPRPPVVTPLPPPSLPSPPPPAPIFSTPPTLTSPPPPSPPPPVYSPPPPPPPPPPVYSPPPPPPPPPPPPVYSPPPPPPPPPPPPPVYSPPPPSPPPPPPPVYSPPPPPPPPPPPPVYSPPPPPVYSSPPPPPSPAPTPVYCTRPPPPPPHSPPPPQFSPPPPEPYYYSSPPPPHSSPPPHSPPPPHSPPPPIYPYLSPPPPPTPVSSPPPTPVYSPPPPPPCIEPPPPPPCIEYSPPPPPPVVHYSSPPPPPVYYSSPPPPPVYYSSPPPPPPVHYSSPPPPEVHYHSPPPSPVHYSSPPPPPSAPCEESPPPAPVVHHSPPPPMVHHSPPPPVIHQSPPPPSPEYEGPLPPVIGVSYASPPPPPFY
protocol.details: BLI; BLITZ; LRX^ΔE-FLAG mixed with anti-FLAG M2 antibody and loaded onto a protein A biosensor; synthetic RALF1 peptide added at 0.2-200 μM; association 120 s, dissociation 120 s; sample diluent buffer (Pall FortéBio)
property.label: Kd (µM)
Could you give me the number in µM? Just the number is fine.

State its Kd for this binder: ATTKYISYQSLKRNSVPCSRRGASYYNCQNGAQANPYSRGCSKIARCRS [synthetic RALF1 peptide]
11
